biological target: HLA-A*0201 (human); test: competition against 125I-labelled standard peptide on purified HLA-A*0201, gel filtration
// values below are reported relative binding ratio (IC50 of standard peptide / IC50 of test peptide)
Hey, just send me the number, nothing else.

KLLSKLLCV (modifications not checked) [HPV16 E1 292 …]; 0.051
LLITSNINA (modifications not checked) [HPV16 E1 562 …]; 0.0022
LACSWGMVV (modifications not checked) [HPV16 E1 267 …]; 0.0006

So, LLCVSPMCM (modifications not checked) [HPV16 E1 297 …] ? Its relative binding ratio (IC50 of standard peptide / IC50 of test peptide) was 0.0008
